Source listed as ChEMBL document CHEMBL3352780.

I'd appreciate it if you could supply EC50 values for the items below.
Test system: MEF
Assay: Antiproliferative activity against CHOP-knock out MEF cells after 16 hrs by luminescence assay
Format: functional, cell-based
Details: Mus musculus

A selection of reference data follows.
structure.smiles.string	EC50
O=C(Nc1ccc(S(=O)(=O)N2CCCCC2)cc1)c1ccc([N+](=O)[O-])o1	> 20 µM
O=C(Nc1ccc(S(=O)(=O)N2CCC(Cl)CC2)cc1)c1ccc([N+](=O)[O-])o1	> 20 µM

From here, focus on the item given below.
Exercise: Provide one value: measured EC50 of `O=C(Nc1ccc(S(=O)(=O)N2CCC(F)CC2)cc1)c1ccc([N+](=O)[O-])o1`
Solution: > 20 µM
